Property: CC50; scope: individual compounds
- assay.explanation: MTT cytotoxicity, HepG2 cells
- Format: cell-based, human
- condition.set: human, HepG2 cells (liver carcinoma)
property.label: CC50

In [3]: df
Out[3]:
                                   compound  property_label  test_value
0  NCCCC(=O)NCc1nc(-c2cccc(F)c2)c(-c2ccccn2)[nH]1 [GT-45]            CC50    > 100 µM
1  Cc1ccc2[nH]c(CCNc3nccc(-c4ccccn4)n3)nc2c1C [GT-47]            CC50       18 µM
2  Cc1cc2nc(-c3ccccn3)c(-c3ccccn3)nc2cc1C [GT-5]            CC50    > 100 µM

Ref: paper PMC11019538
